- experimentNotes: Hemolytic activity in rabbit RBC incubated for 1 hr by microplate reader analysis
- Type: toxicity, cell-based, Oryctolagus cuniculus, Erythrocyte
- conditionParameters: rabbit red blood cells (erythrocytes)
Listing of entries alongside the reported HC50 at 1 h.

Past entries and their recorded results:
CC(C)(C)CC(C)(C)c1ccc(OCC(=O)N[C@@H](CCCNC(=N)N)C(N)=O)c(Sc2cc(C(C)(C)CC(C)(C)C)ccc2OCC(=O)N[C@@H](CCCNC(=N)N)C(N)=O)c1	183 µg/mL
CC(C)(C)CC(C)(C)c1ccc(OCC(=O)N[C@@H](CCCNC(=N)N)C(=O)N[C@@H](CCCNC(=N)N)C(N)=O)c(Sc2cc(C(C)(C)CC(C)(C)C)ccc2OCC(=O)N[C@@H](CCCNC(=N)N)C(=O)N[C@@H](CCCNC(=N)N)C(N)=O)c1	> 200 µg/mL
COC(=O)[C@H](CCCNC(=N)N)NC(=O)[C@H](CCCNC(=N)N)NC(=O)COc1ccc(C(C)(C)CC(C)(C)C)cc1Sc1cc(C(C)(C)CC(C)(C)C)ccc1OCC(=O)N[C@@H](CCCNC(=N)N)C(=O)N[C@@H](CCCNC(=N)N)C(=O)OC	> 200 µg/mL
COC(=O)[C@H](CCCNC(=N)N)NC(=O)COc1ccc(Cl)cc1Sc1cc(Cl)ccc1OCC(=O)N[C@@H](CCCNC(=N)N)C(=O)OC	> 200 µg/mL
CC(C)(C)CC(C)(C)c1ccc(OCCCCN2CCCCC2)c(Sc2cc(C(C)(C)CC(C)(C)C)ccc2OCCCCN2CCCCC2)c1	> 200 µg/mL

Form: molecule = CCCCN(CCCC)CCCCOc1ccc(C(C)(C)CC(C)(C)C)cc1Sc1cc(C(C)(C)CC(C)(C)C)ccc1OCCCCN(CCCC)CCCC ; HC50 at 1 h = > 200 µg/mL

###

Catalogue of compounds with associated MIC
- Test system: Staphylococcus epidermidis
- experimentNotes: Antibacterial activity against Staphylococcus epidermidis CMCC26069 assessed as inhibition of bacterial growth incubated for 24 hrs by microbroth dilution method
- Type: functional
All answers are understood in µg/mL, so give the number only.

COC(=O)[C@H](CCCNC(=N)N)NC(=O)[C@H](CCCNC(=N)N)NC(=O)COc1ccc(C(C)(C)CC(C)(C)C)cc1Sc1cc(C(C)(C)CC(C)(C)C)ccc1OCC(=O)N[C@@H](CCCNC(=N)N)C(=O)N[C@@H](CCCNC(=N)N)C(=O)OC	1.56
COC(=O)[C@H](CCCNC(=N)N)NC(=O)COc1ccc(C(C)(C)CC(C)(C)C)cc1Sc1cc(C(C)(C)CC(C)(C)C)ccc1OCC(=O)N[C@@H](CCCNC(=N)N)C(=O)OC	0.39
COC(=O)[C@H](CCCNC(=N)N)NC(=O)[C@H](CCCNC(=N)N)NC(=O)COc1c(Sc2cc(C)cc(C(C)(C)C)c2OCC(=O)N[C@@H](CCCNC(=N)N)C(=O)N[C@@H](CCCNC(=N)N)C(=O)OC)cc(C)cc1C(C)(C)C	0.78

COC(=O)[C@H](CCCNC(=N)N)NC(=O)COc1c(Sc2cc(C)cc(C(C)(C)C)c2OCC(=O)N[C@@H](CCCNC(=N)N)C(=O)OC)cc(C)cc1C(C)(C)C yielded MIC of 0.78

###

- System: Staphylococcus aureus
- experimentNotes: Antibacterial activity against methicillin resistant Staphylococcus aureus NCTC10442 assessed as inhibition of bacterial growth incubated for 24 hrs by microbroth dilution method
- Assay type: functional
compounds and their reported MIC
The answer is to be given in mg/L; state only the numeric part.

CCNCCCCOc1ccc(C(C)(C)CC(C)(C)C)cc1Sc1cc(C(C)(C)CC(C)(C)C)ccc1OCCCCNCC	1.56

Noted MIC for COC(=O)[C@H](CCCNC(=N)N)NC(=O)[C@H](CCCNC(=N)N)NC(=O)COc1c(Sc2cc(C)cc(C(C)(C)C)c2OCC(=O)N[C@@H](CCCNC(=N)N)C(=O)N[C@@H](CCCNC(=N)N)C(=O)OC)cc(C)cc1C(C)(C)C , tested on Staphylococcus aureus: 1.56

Tested on Staphylococcus aureus, the item CCN(CC)CCCCOc1ccc(C(C)(C)CC(C)(C)C)cc1Sc1cc(C(C)(C)CC(C)(C)C)ccc1OCCCCN(CC)CC showed MIC equal to 3.12

Form field MIC for item CC(C)(C)CC(C)(C)c1ccc(OCCCCN2CCCCC2)c(Sc2cc(C(C)(C)CC(C)(C)C)ccc2OCCCCN2CCCCC2)c1 on Staphylococcus aureus: 25

// provenance: ChEMBL document CHEMBL5108078
